- System: NCI-H520
- assay: relative viability (nuclei count vs DMSO), 5 days (fraction); higher = more cells survive
- condition-details: first compound 0.04 µM
Each item that follows carries a reported relative viability.
When you answer, write just the number.

| compound | target-of-assay | numeric-readout |
| --- | --- | --- |
| C[C@@H]1CN(CC(=O)Nc2ccc3c(c2)Cc2cccc(-c4cc(=O)cc(N5CCOCC5)o4)c2S3)C[C@H](C)O1 + Cc1cc(Nc2cc(N3CCN(C)CC3)nc(Sc3ccc(NC(=O)C4CC4)cc3)n2)n[nH]1 [Tozasertib] (partner 0.1 µM) | NCI-H520 | 0.474 |
| Clc1ccc(Nc2nnc(Cc3ccncc3)c3ccccc23)cc1 [Vatalanib] + O=C(CCCCCCC(=O)Nc1ccccc1)NO [Vorinostat] (partner 1 µM) | NCI-H520 | 0.621 |
| Clc1ccc(Nc2nnc(Cc3ccncc3)c3ccccc23)cc1 [Vatalanib] + CC1(C)CCC(c2ccc(Cl)cc2)=C(CN2CCN(c3ccc(C(=O)NS(=O)(=O)c4ccc(N[C@H](CCN5CCOCC5)CSc5ccccc5)c(S(=O)(=O)C(F)(F)F)c4)cc3)CC2)C1 [Navitoclax] (partner 0.5 µM) | NCI-H520 | 0.974 |
| Clc1ccc(Nc2nnc(Cc3ccncc3)c3ccccc23)cc1 [Vatalanib] + CC(=O)Nc1cccc(-n2c(=O)n(C3CC3)c(=O)c3c(Nc4ccc(I)cc4F)n(C)c(=O)c(C)c32)c1 [Trametinib] (partner 0.02 µM) | NCI-H520 | 0.794 |

Which relative viability value belongs to Clc1ccc(Nc2nnc(Cc3ccncc3)c3ccccc23)cc1 [Vatalanib] + CS(=O)(=O)CCNCc1ccc(-c2ccc3ncnc(Nc4ccc(OCc5cccc(F)c5)c(Cl)c4)c3c2)o1 [Lapatinib] (partner 2 µM) ?
0.94

----------
- System: NCI-H2228
- assay: relative viability (nuclei count vs DMSO), 5 days (fraction); higher = more cells survive
- condition-details: first compound 8 µM
Each item that follows carries a reported relative viability.
When you answer, write just the number.

| compound | numeric-readout |
| --- | --- |
| CCCCCCCCCCCC1=C(O)C(=O)C=C(O)C1=O [Embelin] + C[C@@H](Oc1cc(-c2cnn(C3CCNCC3)c2)cnc1N)c1c(Cl)ccc(F)c1Cl [Crizotinib] (partner 1 µM) | 0.426 |

Which relative viability value belongs to CCCCCCCCCCCC1=C(O)C(=O)C=C(O)C1=O [Embelin] + COc1cccc2cc(-c3nc([C@H]4CC[C@H](C(=O)O)CC4)n4ncnc(N)c34)[nH]c12 [OSI-027] (partner 0.5 µM) ?
0.485

Which relative viability value belongs to CCCCCCCCCCCC1=C(O)C(=O)C=C(O)C1=O [Embelin] + N=C(N)NC(=N)NCCc1ccccc1 [Phenformin] (partner 250 µM) ?
0.309

Which relative viability value belongs to CCCCCCCCCCCC1=C(O)C(=O)C=C(O)C1=O [Embelin] + CS(=O)(=O)N1CCN(Cc2cc3nc(-c4cccc5[nH]ncc45)nc(N4CCOCC4)c3s2)CC1 [Pictilisib] (partner 1 µM) ?
0.366

----------
- Tested on: LCLC-97TM1
- assay: relative viability (nuclei count vs DMSO), 5 days (fraction); higher = more cells survive
- condition-details: first compound 1.265 µM
property: relative viability
When you answer, write just the number.

| compound | target-of-assay | numeric-readout |
| --- | --- | --- |
| Clc1ccc(Nc2nnc(Cc3ccncc3)c3ccccc23)cc1 [Vatalanib] + CC1(C)CCC(c2ccc(Cl)cc2)=C(CN2CCN(c3ccc(C(=O)NS(=O)(=O)c4ccc(N[C@H](CCN5CCOCC5)CSc5ccccc5)c(S(=O)(=O)C(F)(F)F)c4)cc3)CC2)C1 [Navitoclax] (partner 0.5 µM) | LCLC-97TM1 | 0.401 |

Which relative viability value belongs to Clc1ccc(Nc2nnc(Cc3ccncc3)c3ccccc23)cc1 [Vatalanib] + Cc1nc(Nc2ncc(C(=O)Nc3c(C)cccc3Cl)s2)cc(N2CCN(CCO)CC2)n1 [Dasatinib] (partner 0.075 µM) ?
0.775

----------
- Test system: LCLC-97TM1
- assay: relative viability (nuclei count vs DMSO), 5 days (fraction); higher = more cells survive
- condition-details: first compound 0.4 µM
Each item that follows carries a reported relative viability.
When you answer, write just the number.

Here are 3 molecules together with their reported answers.
| molecule | relative viability |
| --- | --- |
| COc1cc(N2CCC(C(N)=O)CC2)ccc1Nc1nc(N)c(Cl)c(Nc2ccccc2S(=O)(=O)C(C)C)n1 [HG-5-88-01] + CC(C)C[C@H](NC(=O)[C@H](Cc1ccccc1)NC(=O)c1cnccn1)B(O)O [Bortezomib] (partner 0.002 µM) | 0.308 |
| C[C@@H]1CN(CC(=O)Nc2ccc3c(c2)Cc2cccc(-c4cc(=O)cc(N5CCOCC5)o4)c2S3)C[C@H](C)O1 + CC(=O)c1c(C)c2cnc(Nc3ccc(N4CCNCC4)cn3)nc2n(C2CCCC2)c1=O [Palbociclib] (partner 0.5 µM) | 0.206 |
| C[C@@H]1CN(CC(=O)Nc2ccc3c(c2)Cc2cccc(-c4cc(=O)cc(N5CCOCC5)o4)c2S3)C[C@H](C)O1 + CCNC(=O)c1noc(-c2cc(C(C)C)c(O)cc2O)c1-c1ccc(CN2CCOCC2)cc1 [Luminespib] (partner 0.01 µM) | 0.749 |

# evaluate next
What value of relative viability on LCLC-97TM1 does C[C@@H]1CN(CC(=O)Nc2ccc3c(c2)Cc2cccc(-c4cc(=O)cc(N5CCOCC5)o4)c2S3)C[C@H](C)O1 + O=C(CCCCCCC(=O)Nc1ccccc1)NO [Vorinostat] (partner 1 µM) have?
0.685

----------
- Test system: NCI-H2085
- assay: relative viability (nuclei count vs DMSO), 5 days (fraction); higher = more cells survive
- condition-details: first compound 0.04 µM
Please map values of relative viability to classes as shown: bucket A (below 0.8), bucket B (0.8 to below 1), bucket C (1 or more)

| compound | classification |
| --- | --- |
| COc1cc(N2CCC(C(N)=O)CC2)ccc1Nc1nc(N)c(Cl)c(Nc2ccccc2S(=O)(=O)C(C)C)n1 [HG-5-88-01] + Cc1nc(Nc2ncc(C(=O)Nc3c(C)cccc3Cl)s2)cc(N2CCN(CCO)CC2)n1 [Dasatinib] (partner 0.075 µM) | bucket A |
| COc1cc(N2CCC(C(N)=O)CC2)ccc1Nc1nc(N)c(Cl)c(Nc2ccccc2S(=O)(=O)C(C)C)n1 [HG-5-88-01] + CC1(C)CCC(c2ccc(Cl)cc2)=C(CN2CCN(c3ccc(C(=O)NS(=O)(=O)c4ccc(N[C@H](CCN5CCOCC5)CSc5ccccc5)c(S(=O)(=O)C(F)(F)F)c4)cc3)CC2)C1 [Navitoclax] (partner 0.5 µM) | bucket C |
| COc1cc(N2CCC(C(N)=O)CC2)ccc1Nc1nc(N)c(Cl)c(Nc2ccccc2S(=O)(=O)C(C)C)n1 [HG-5-88-01] + Nc1nc2[nH]cc(CCc3ccc(C(=O)N[C@@H](CCC(=O)O)C(=O)O)cc3)c2c(=O)[nH]1 [Pemetrexed] (partner 0.2 µM) | bucket B |
| C[C@@H]1CN(CC(=O)Nc2ccc3c(c2)Cc2cccc(-c4cc(=O)cc(N5CCOCC5)o4)c2S3)C[C@H](C)O1 + C[C@@H](Oc1cc(-c2cnn(C3CCNCC3)c2)cnc1N)c1c(Cl)ccc(F)c1Cl [Crizotinib] (partner 1 µM) | bucket B |
| COc1cc(N2CCC(C(N)=O)CC2)ccc1Nc1nc(N)c(Cl)c(Nc2ccccc2S(=O)(=O)C(C)C)n1 [HG-5-88-01] + COc1cc2c(Oc3ccc(NC(=O)C4(C(=O)Nc5ccc(F)cc5)CC4)cc3F)ccnc2cc1OCCCN1CCOCC1 [Foretinib] (partner 0.25 µM) | bucket B |

Each compound maps to one class by relative viability. Which class for Clc1ccc(Nc2nnc(Cc3ccncc3)c3ccccc23)cc1 [Vatalanib] + Nc1nc2[nH]cc(CCc3ccc(C(=O)N[C@@H](CCC(=O)O)C(=O)O)cc3)c2c(=O)[nH]1 [Pemetrexed] (partner 0.2 µM) ?
bucket B

Each compound maps to one class by relative viability. Which class for C[C@@H]1CN(CC(=O)Nc2ccc3c(c2)Cc2cccc(-c4cc(=O)cc(N5CCOCC5)o4)c2S3)C[C@H](C)O1 + Cc1cc(Nc2cc(N3CCN(C)CC3)nc(Sc3ccc(NC(=O)C4CC4)cc3)n2)n[nH]1 [Tozasertib] (partner 0.1 µM) ?
bucket B

Each compound maps to one class by relative viability. Which class for COc1cc(N2CCC(C(N)=O)CC2)ccc1Nc1nc(N)c(Cl)c(Nc2ccccc2S(=O)(=O)C(C)C)n1 [HG-5-88-01] + CS(=O)(=O)CCNCc1ccc(-c2ccc3ncnc(Nc4ccc(OCc5cccc(F)c5)c(Cl)c4)c3c2)o1 [Lapatinib] (partner 2 µM) ?
bucket A

Each compound maps to one class by relative viability. Which class for Clc1ccc(Nc2nnc(Cc3ccncc3)c3ccccc23)cc1 [Vatalanib] + CCNC(=O)c1noc(-c2cc(C(C)C)c(O)cc2O)c1-c1ccc(CN2CCOCC2)cc1 [Luminespib] (partner 0.01 µM) ?
bucket A

Each compound maps to one class by relative viability. Which class for COc1cc(N2CCC(C(N)=O)CC2)ccc1Nc1nc(N)c(Cl)c(Nc2ccccc2S(=O)(=O)C(C)C)n1 [HG-5-88-01] + NC(=O)Nc1cc(-c2cccc(F)c2)sc1C(=O)N[C@H]1CCCNC1 [AZD7762] (partner 0.2 µM) ?
bucket C

Each compound maps to one class by relative viability. Which class for COc1cc(N2CCC(C(N)=O)CC2)ccc1Nc1nc(N)c(Cl)c(Nc2ccccc2S(=O)(=O)C(C)C)n1 [HG-5-88-01] + N=C(N)NC(=N)NCCc1ccccc1 [Phenformin] (partner 250 µM) ?
bucket A
